B1: PPP2R2C (parent)
chain: YSSSKGSLRLCDMRAAALCDKHSK

Variants of: B1
Assay: protein stability index of a GFP-peptide fusion (GPS, HEK-293T) (PSI 1-6); higher = more stable;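 note: lentivirally expressed fusions sorted by FACS into six bins by GFP to DsRed ratio, PSI derived from sequencing read proportions per bin multiplied by bin number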
Conditions: c terminus: a fixed tail appended
ASSAY_ENDPOINT: protein stability index
// no unit, no text: just the number

Here are 10 variants together with their reported answers.
D20Q | 2.33
M13N | 2.05
A17R | 1.78
D20C | 1.41
M13G | 2
S4G | 2.87
L8I | 1.78
R14G | 2.13
S7N | 1.65
K5N | 1.43

Exam item: Would you mind telling me what protein stability index value was observed for S4Y ?
Marked response: 1.98
